# testedOn: Voltage-gated potassium channel subunit beta-2 (Rattus norvegicus)
# assay: inhibitors of rat Kvbeta2 reductase activity – biochemical, NADPH fluorescence, primary screen (AID 622);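 further: slope of raw intensity against log time taken from 70 to 1610 s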
# cond: recombinant KvBeta, 4-cyanobenzaldehyde reduction, at 10 µM, stronger effect = higher value
The entries below come with measured fluorescence slope values attached.
Number only, no unit.

Before answering, review these 2 worked examples.
O=C(NC1CCCC1)C1CCCN(S(=O)(=O)c2cccc3cccnc23)C1 (centres undefined) = -0.594
Cc1cccc(N2C(=O)CC(Sc3nc(C)c4c(n3)CCCC4)C2=O)c1 (centres undefined) = -0.592

// sample `O=C(Nn1cnnc1)c1cc2c(s1)CCCC2` , its fluorescence slope was -0.411

Record `c1ccc(CN2C3=NCCCN3c3ccccc32)cc1` . Reported fluorescence slope: -0.601

---

# assay: inhibitors of TNFa-induced NFkB p65 translocation, primary screen, imaging, HUVEC, MLSMR starter and 10KST1 sets (AID 438);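 further: compound added about 3h40 before a 20 min TNFalpha stimulation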
# cond: HUVEC TNFa-induced p65 nuclear translocation; measured here: nuclei count (cytotoxicity indicator), at 2.08 µM
experimentalEndpoint: cell count
Output spec: single numeric token, no unit.

Sample records with cell count:
COc1cccc(C2CC(c3ccc(C)cc3)n3nc(N)nc3N2)c1 (centres undefined) = 510
O=C(Nc1cnn(Cc2ccc(Cl)cc2Cl)c1)c1noc2c1CCCC2 = 510
COC(=O)c1ccc(NC(=O)C2CC(=O)N(c3cc(C)ccc3C)C2)cc1 (centres undefined) = 504

Would you kindly look at the next entry?
Reported cell count for `CCOc1ccc(N(CC(=O)Nc2cccc(OC)c2)S(=O)(=O)c2c(C)noc2C)cc1` was 490

---

slope overview
# testedOn: Alpha-2C adrenergic receptor (Homo sapiens)
# assay: compounds altering alpha2C-coupled GIRK flux – cell-based, HEK293 alpha2C/GIRK1/2, thallium flux, primary screen (AID 624);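 further: slope of fluorescence ratio to pre-addition baseline per second over 15 to 24 s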
# cond: thallium flux BTC fluorescence, at 10 µM, actives lie on both sides
Please state the value as a number alone, without comment.

Past entries and their recorded results:
CCOC(=O)c1c(N)sn(-c2ccccc2)c1=S = 0.00599
COc1ccc(N2C(=O)CC(N3CCN(c4ccccc4F)CC3)C2=O)cc1 (stereo not given) = 0.00511
Cc1ccc(C(C)n2cc(C(=O)NCCN3CCN(C)CC3)nn2)cc1 (stereo not given) = 0.00588
CCOc1ccc(S(=O)(=O)N2CCN(C(=O)c3cccn3C)CC2)cc1 = 0.00499

Measured slope (Alpha-2C adrenergic receptor (Homo sapiens)), entry `Cc1ccc2c(CNCc3ccco3)cc(=O)oc2c1` : 0.00495

// slope (Alpha-2C adrenergic receptor (Homo sapiens)) for `c1ccc2c(c1)nc(NC1CCCCC1)c1nncn12` = 0.0061

Alpha-2C adrenergic receptor (Homo sapiens) assay, molecule `COCCNC(=O)Cn1cc2c(n1)CCCCC2` , recorded slope = 0.00598

---

# testedOn: Alpha-2C adrenergic receptor (Homo sapiens) (UniProt P18825)
# Sequence (P18825 whole entry, looked up): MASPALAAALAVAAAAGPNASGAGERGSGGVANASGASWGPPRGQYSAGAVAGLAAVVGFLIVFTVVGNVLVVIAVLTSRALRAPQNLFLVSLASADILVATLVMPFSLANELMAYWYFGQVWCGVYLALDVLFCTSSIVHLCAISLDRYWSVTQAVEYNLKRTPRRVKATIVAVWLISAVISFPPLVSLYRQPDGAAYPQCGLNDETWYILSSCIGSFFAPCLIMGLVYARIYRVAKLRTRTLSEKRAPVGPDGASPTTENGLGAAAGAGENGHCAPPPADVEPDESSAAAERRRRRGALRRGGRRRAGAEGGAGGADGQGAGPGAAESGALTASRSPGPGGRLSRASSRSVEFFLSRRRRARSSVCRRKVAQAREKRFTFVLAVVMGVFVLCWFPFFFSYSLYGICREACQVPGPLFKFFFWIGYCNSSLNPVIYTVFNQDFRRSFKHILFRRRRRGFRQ
# assay: compounds altering alpha2C-coupled GIRK flux – cell-based, HEK293 alpha2C/GIRK1/2, thallium flux, primary screen (AID 624);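 further: slope of fluorescence ratio to pre-addition baseline per second over 15 to 24 s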
# cond: thallium flux BTC fluorescence, at 10 µM, actives lie on both sides
Response key: yes means slope >= 0.005; no means slope < 0.005.

CCOC(=O)N1CCN(C(=O)CSc2nnc(COc3ccccc3)o2)CC1 = yes
O=C(c1ccc(Br)o1)N(c1ccc(Br)cc1)C1C=CS(=O)(=O)C1 (centres undefined) = yes
NC(=O)COC(=O)CNC(=O)c1ccc(Cl)cc1 = yes
O=C(CSc1nnnn1C1CCCCC1)N1CCc2ccccc21 = no

Field: next compound
State whether the measured slope reaches 0.005, counting equality as reaching it, for `CCOc1ccccc1NC(=O)CCN1CCN(S(=O)(=O)c2ccc(Br)cc2)CC1` no
